# Tested on: sodium channels
# Assay type: cell-based
# test_settings: read-out: IC50 (μM), sodium channel-inhibiting activity; rat fetal cultured hippocampal neurons, SBFI fluorescence in the presence of 4-aminopyridine, 5 minutes after addition, 1 μM tetrodotoxin = 100%
Counter-ions that a name gives are not always drawn.
measurement_label: IC50 (µM)
Respond with the bare value in µM.

Task: What value of IC50 has been recorded for this entry: COc1ccccc1OCC1CCN(Cc2nc3ccccc3[nH]c2=O)CC1 [Example 205]
Result: 2.6

Task: What value of IC50 has been recorded for this entry: O=c1cncc(CCN2CCC(COc3cccc(F)c3)CC2)[nH]1 [Example 238]
Result: 5.6

Task: What value of IC50 has been recorded for this entry: O=C(Cc1ccccc1Cl)C1CCN(Cc2ncc[nH]c2=O)CC1 [Example 183]
Result: 2.6

Task: What value of IC50 has been recorded for this entry: CC1(C(=O)Cc2ccccc2F)CCN(Cc2ncc[nH]c2=O)CC1 [Example 365]
Result: 3.4

Task: What value of IC50 has been recorded for this entry: O=C(CC1CCN(Cc2ncc[nH]c2=O)CC1)c1ccccc1Cl [Example 174]
Result: 3.6

Task: What value of IC50 has been recorded for this entry: O=c1[nH]ccnc1CN1CCC(/C=C/c2ccccc2OCC2CCCCC2)CC1 [Example 412, oxalate]
Result: 1.2

Task: What value of IC50 has been recorded for this entry: Cc1ccccc1OCC1CCN(CCc2cncc(=O)[nH]2)CC1 [Example 236]
Result: 7

Task: What value of IC50 has been recorded for this entry: O=c1[nH]ccnc1CN1CCC(CO)(CCc2ccccc2)CC1 [Example 219]
Result: 1.6

Task: What value of IC50 has been recorded for this entry: O=c1cncc(CCN2CCC3(CC2)CC(Oc2ccccc2F)C3)[nH]1 [Example 119]
Result: 8.4

----------
# System: sodium channels
# Type: cell-based
# test_settings: read-out: IC50 (μM), sodium channel-inhibiting activity; rat fetal cultured hippocampal neurons, SBFI fluorescence in the presence of 4-aminopyridine, 5 minutes after addition, 1 μM tetrodotoxin = 100%
Counter-ions that a name gives are not always drawn.
Each record is given True if its reported IC50 is strictly below 6 µM. Records at or above 6 µM are given False.

Task: Does the reported IC50 of CC1(COc2ccccc2F)CCN(Cc2ncc[nH]c2=O)CC1 [Example 406] stay below 6 µM?
Result: True

Task: Does the reported IC50 of CC(c1ncc[nH]c1=O)N1CCC(COc2ccccc2F)CC1 (centres unmarked) [Example 395, oxalate] stay below 6 µM?
Result: False

Task: Does the reported IC50 of O=c1[nH]ccnc1CN1CCC(COc2ccccc2)CC1 [Example 198] stay below 6 µM?
Result: True

Task: Does the reported IC50 of O=c1[nH]ccnc1CN1CCC(SCc2ccccc2F)CC1 [Example 411] stay below 6 µM?
Result: True

Task: Does the reported IC50 of O=C(Cc1cccc(F)c1F)C1CCN(Cc2ncc[nH]c2=O)CC1 [Example 200] stay below 6 µM?
Result: True

Task: Does the reported IC50 of Cc1cccc(CC(=O)C2CCN(Cc3ncc[nH]c3=O)CC2)c1 [Example 192] stay below 6 µM?
Result: True

Task: Does the reported IC50 of COc1ccccc1CC(=O)C1CCN(Cc2ncc[nH]c2=O)CC1 [Example 193] stay below 6 µM?
Result: True

Task: Does the reported IC50 of CC(C(=O)C1CCN(Cc2ncc[nH]c2=O)CC1)c1ccccc1F (centres unmarked) [Example 349] stay below 6 µM?
Result: False

Task: Does the reported IC50 of O=c1[nH]ccnc1CN1CCC(COc2c(F)cccc2F)CC1 [Example 201] stay below 6 µM?
Result: False

Task: Does the reported IC50 of O=c1[nH]ccnc1CN1CCOC(CCc2ccccc2F)C1 (centres unmarked) [Example 340] stay below 6 µM?
Result: False

Task: Does the reported IC50 of N#Cc1ccccc1OCC1CCN(Cc2ncc[nH]c2=O)CC1 [Example 166] stay below 6 µM?
Result: False

Task: Does the reported IC50 of Cc1ccccc1OCC1(C#N)CCN(Cc2ncc[nH]c2=O)CC1 [Example 121] stay below 6 µM?
Result: True

Task: Does the reported IC50 of O=C(Cc1ccccc1Br)C1CCN(Cc2ncc[nH]c2=O)CC1 [Example 362] stay below 6 µM?
Result: True

Task: Does the reported IC50 of O=C(Cc1cccc(F)c1)C1CCN(Cc2ncc[nH]c2=O)CC1 [Example 191] stay below 6 µM?
Result: False

Task: Does the reported IC50 of O=c1[nH]ccnc1CN1CCC(c2nc(-c3cccc(F)c3)no2)CC1 [Example 188] stay below 6 µM?
Result: True

Task: Does the reported IC50 of O=C(Cc1ccccc1-c1ccccc1)C1CCN(Cc2ncc[nH]c2=O)CC1 [Example 359] stay below 6 µM?
Result: True

Task: Does the reported IC50 of O=C(Cc1ccccc1C(F)(F)F)C1(F)CCN(Cc2ncc[nH]c2=O)CC1 [Example 372] stay below 6 µM?
Result: True

Task: Does the reported IC50 of Cc1ccccc1/C=C/C1CCN(Cc2ncc[nH]c2=O)CC1 [Example 171] stay below 6 µM?
Result: True

Task: Does the reported IC50 of O=C(Cc1cccc2c1OCC2)C1CCN(Cc2ncc[nH]c2=O)CC1 [Example 410] stay below 6 µM?
Result: True

Task: Does the reported IC50 of Cc1ccc(-c2ccccc2)n1CC1(O)CCN(Cc2ccc[nH]c2=O)CC1 [Example 251] stay below 6 µM?
Result: False

Task: Does the reported IC50 of CON=C(Cc1ccccc1F)C1CCN(Cc2ncc[nH]c2=O)CC1 [Example 203] stay below 6 µM?
Result: True

Task: Does the reported IC50 of O=C(Cc1cccc2ccccc12)C1CCN(Cc2ncc[nH]c2=O)CC1 [Example 353] stay below 6 µM?
Result: True

Task: Does the reported IC50 of O=c1[nH]ccnc1CN1CCC([S+]([O-])Cc2ccccc2F)CC1 (centres unmarked) [Example 398] stay below 6 µM?
Result: True

Task: Does the reported IC50 of O=c1cncc(CCN2CCCC(COc3ccccc3F)C2)[nH]1 (centres unmarked) [Example 117] stay below 6 µM?
Result: True

Task: Does the reported IC50 of CC1(C(=O)Cc2ccccc2C(F)(F)F)CCN(Cc2ncc[nH]c2=O)CC1 [Example 373] stay below 6 µM?
Result: True

Task: Does the reported IC50 of O=c1[nH]ccnc1CN1CCC(/C=C/c2sccc2F)CC1 [Example 173] stay below 6 µM?
Result: True

Task: Does the reported IC50 of O=c1cncc(CCN2CCC(COc3ccc(F)cc3F)CC2)[nH]1 [Example 239] stay below 6 µM?
Result: False

Task: Does the reported IC50 of O=c1cncc(CCN2CCC(COc3cccc(F)c3F)CC2)[nH]1 [Example 242] stay below 6 µM?
Result: False

Task: Does the reported IC50 of O=c1[nH]ccnc1CN1CCC(C#Cc2ccccc2F)CC1 [Example 170] stay below 6 µM?
Result: True

Task: Does the reported IC50 of CCOc1ccccc1CC(=O)C1CCN(Cc2ncc[nH]c2=O)CC1 [Example 347] stay below 6 µM?
Result: True

Task: Does the reported IC50 of O=C(Cc1ccccc1OC(F)(F)F)C1CCN(Cc2ncc[nH]c2=O)CC1 [Example 345] stay below 6 µM?
Result: True

Task: Does the reported IC50 of O=C(Cc1ccccc1F)C1CCN(Cc2ncc[nH]c2=O)CC1 [Example 179] stay below 6 µM?
Result: True

Task: Does the reported IC50 of O=C(O)C(=O)O.O=c1[nH]ccnc1CN1CCC(COc2ccccc2F)C1 (centres unmarked) [Example 132, oxalate] stay below 6 µM?
Result: False

Task: Does the reported IC50 of O=c1[nH]ccnc1CN1CCC(CCc2cccc3c2OCC3)CC1 [Example 140] stay below 6 µM?
Result: True

Task: Does the reported IC50 of Cc1ccccc1COC1CCN(Cc2ncc[nH]c2=O)CC1 [Example 152] stay below 6 µM?
Result: True

Task: Does the reported IC50 of C[C@H]1C[C@H](C(=O)Cc2ccccc2F)CCN1Cc1ncc[nH]c1=O (relative stereo) [Example 414] stay below 6 µM?
Result: False

Task: Does the reported IC50 of O=c1[nH]ccnc1CN1CCC(c2nc(-c3ccc(F)cc3)no2)CC1 [Example 189] stay below 6 µM?
Result: False

Task: Does the reported IC50 of O=C(Cc1ccccc1C(F)(F)F)C1CCN(Cc2ncc[nH]c2=O)CC1 [Example 344] stay below 6 µM?
Result: True
